test system: HT29 colon; assay: NCI-60 one-dose screen, 48 h (100 = growth as untreated, 0 = no growth, -100 = all killed); conditions: 10 µM unless noted
Compounds without any hit were thinned out: in the full panel of roughly 83,000, 20% have a hit.
Consider the following compounds and their measured growth readings.
Numbers only here, please. The scale is %.

Some entries whose results are on file:
CC1C(c2ccccc2)OCCN1C(=S)Nc1ccc(S(=O)(=O)N2CCCCC2)cc1 (stereo not drawn) ... 87.5
NCCCN(CCCN)CCCNCc1c2ccccc2c(CNCCCN(CCCN)CCCN)c2ccccc12 ... 91.9

Request: Note down growth recorded for O=[N+]([O-])c1cc(-c2ccccc2)c(O)c([N+](=O)[O-])c1
Response: 92.4

These data points were gathered from PubChem BioAssay (NCI).
